Settings: buffer; pH 7.4; 200.0 µM
Property Name: log10 solubility kinetic (log10 of the value in mg/mL)
Scale type: logarithmic (base 10). Underlying solubility kinetic unit: mg/mL.

Find the recorded log10 solubility kinetic belonging to Cc1cccc(C(=O)Nc2cccc3c2CCCC3)c1 and report it. -3.10

Next compound up: Cl.NS(=O)(=O)c1ccc(CCNCc2cccnc2)cc1 -1.39

Also, CCCCCCCCNC(CO)(CO)CO please. -1.53

Here is the next compound: CSCC[C@H](NC(=O)c1ccc(OCC2CCCO2)cc1)c1nc2ccccc2[nH]1 (stereo partly drawn) -1.24

Cc1ccc2oc(C(=O)N(Cc3ccccc3)C3CCS(=O)(=O)C3)c(C)c2c1 (stereo not drawn) ? -2.80

Thanks! And Cc1cc(NC(=O)CN2C(=O)c3ccccc3S2(=O)=O)no1 ? -1.49

// same read-out, input: CC(=O)c1cccc(NC(=O)Nc2ccc3c(c2)OCO3)c1 -2.51

Consider next the compound C/C(=N\O)C(C)(C)Nc1ccccc1F in the same way. -1.55

How about O=S(=O)(c1ccc2ccccc2c1)N1CCN(c2ccc(O)cc2)CC1 ? -2.34

Try the compound Cc1ccc2cccc(OCC(=O)N3CC(C)CC(C)C3)c2n1 (stereo not drawn) -1.34

Proceed to COc1ccccc1OCC(=O)Nc1ccc2c(c1)OCCO2 -1.41

Again, but for CCc1ccc(OC(=O)c2cccnc2)cc1 -1.57

What do you get for CC(C)(C)NC(=O)NC(=O)COC(=O)Cc1c(F)cccc1Cl ? -1.81

Note, next up: COc1cccc(C=Nc2ccc(N3CCOCC3)cc2)c1O -1.47

Moving on to CN(C)c1ccc(C(CN)c2c[nH]c3ccccc23)cc1 (stereo not drawn) -1.52

Please do the same for O=C(CN1C(=O)NC2(CCCCCCC2)C1=O)NCc1ccccc1 as well. -1.32

// repeat for CCOc1ncccc1C(=O)OC(C)C(=O)Nc1ccc(CC)cc1 (stereo not drawn) and report -2.15

Another compound to look at: Cc1c(C(=O)NC2CCCCC2)oc2ccc(F)cc12 -2.55

And the next one, O=C(Nc1ccc(Cl)cn1)c1cccc2ccccc12 ? -2.89

Further, for CCOc1cc(C(=O)OC(C(=O)NC(=O)NC)c2ccccc2)ccc1OCC(=O)N1CCOCC1 (stereo not drawn) ? -1.94

Now consider NC(=O)c1cc[n+](CC(=O)NC(=O)Nc2ccccc2)cc1 . -1.52

And O=[N+]([O-])c1ccc(OCCO)nc1 ? -1.57

# repeat for O=C(CNc1ccccc1C(=O)O)c1ccccc1 -1.44

Same again, this time with Cc1cc(C)c2[nH]c(C(=O)Nc3ccc(F)cc3Br)cc2c1 -2.38
